Where do the numbers come from? From ChEMBL document CHEMBL1157817.

Target: Arginase-1 (Homo sapiens)
Sequence (P05089 whole entry): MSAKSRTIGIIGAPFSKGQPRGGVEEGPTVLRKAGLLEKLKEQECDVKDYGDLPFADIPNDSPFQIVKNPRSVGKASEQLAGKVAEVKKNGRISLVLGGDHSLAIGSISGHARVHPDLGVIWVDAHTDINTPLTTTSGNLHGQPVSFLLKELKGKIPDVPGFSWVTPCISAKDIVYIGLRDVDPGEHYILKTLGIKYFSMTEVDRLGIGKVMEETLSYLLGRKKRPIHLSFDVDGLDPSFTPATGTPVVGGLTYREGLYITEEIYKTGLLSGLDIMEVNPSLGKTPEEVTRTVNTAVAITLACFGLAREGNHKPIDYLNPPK
Experiment: Inhibition of human recombinant full length arginase 1 expressed in Escherichia coli BL21(DE3) by fixed point assay
pKi: −log10 of the molar value.
QUANTITY_MEASURED: pKi

Nc1nccn1CCC[C@H](N)C(=O)O; 5.40

[I] Nc1ncc[nH]1
[II] N[C@@H](CCCNc1ncc[nH]1)C(=O)O
Given I and given II , which shows the smaller recorded pKi? State the label of the item chosen. I
